- MEASURED_ON: T1, Human ADAM10 from R & D Systems (human, UniProt O14672 214-672)
- T1 sequence (looked up): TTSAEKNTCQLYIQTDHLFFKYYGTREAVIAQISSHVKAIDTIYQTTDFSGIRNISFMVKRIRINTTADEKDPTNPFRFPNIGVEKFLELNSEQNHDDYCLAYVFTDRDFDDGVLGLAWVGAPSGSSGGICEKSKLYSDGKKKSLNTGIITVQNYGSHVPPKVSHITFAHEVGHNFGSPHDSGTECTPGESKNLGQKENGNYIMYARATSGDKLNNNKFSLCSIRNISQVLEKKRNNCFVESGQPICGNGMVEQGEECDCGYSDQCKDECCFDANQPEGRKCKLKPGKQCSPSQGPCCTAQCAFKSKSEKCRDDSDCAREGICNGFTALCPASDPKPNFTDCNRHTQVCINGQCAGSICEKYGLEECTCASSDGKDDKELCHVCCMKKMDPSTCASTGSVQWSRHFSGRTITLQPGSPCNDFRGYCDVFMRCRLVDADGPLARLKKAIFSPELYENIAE
- TEST_SUMMARY: cell-based or functional assay
Recorded IC50 (nM), inhibition of ADAM10 cleavage of the fluorescent substrate PEPDAB064 by entry
Give the number; nM is assumed, so skip it.

1. N-term PEG-SEQ ID NO: 70 (R29K; R55K; C151S; E177A) (10 kDa maleimide PEG on a cysteine at the N-terminus ('N-term PEG')) CGSNPLNKYIRHYEGLSYNVDSLHQKHQRAKKAVSHEDQFLRLDFHAHGRHFNLRMKKDTSLFSDEFKVETSNKVLDYDTSHIYTGHIYGEEGSFSHGSVIDGRFEGFIQTRGGTFYVEPAERYIKDRTLPFHSVIYHEDDINYPHKYGPQGGSADHSVFERMRKYQMTGVEEVTQIPQAEHAANGPELLRK    52
2. C-term PEG-SEQ ID NO: 69 (R29K; R55K; E177A) (10 kDa maleimide PEG on a cysteine; printed as 'C-term PEG' in Table 5 (the listed changes keep Cys151, and paragraph 162 speaks of a cysteine at C151, or the N- or C-terminus, for SEQ ID NOs: 69-71)) NPLNKYIRHYEGLSYNVDSLHQKHQRAKKAVSHEDQFLRLDFHAHGRHFNLRMKKDTSLFSDEFKVETSNKVLDYDTSHIYTGHIYGEEGSFSHGSVIDGRFEGFIQTRGGTFYVEPAERYIKDRTLPFHSVIYHEDDINYPHKYGPQGGCADHSVFERMRKYQMTGVEEVTQIPQAEHAANGPELLRK    71

IC50 (nM), inhibition of ADAM10 cleavage of the fluorescent substrate PEPDAB064 recorded for this binder, SEQ ID NO: 63 (R29K; R55K; C151S; E177A) (peptide) NPLNKYIRHYEGLSYNVDSLHQKHQRAKKAVSHEDQFLRLDFHAHGRHFNLRMKKDTSLFSDEFKVETSNKVLDYDTSHIYTGHIYGEEGSFSHGSVIDGRFEGFIQTRGGTFYVEPAERYIKDRTLPFHSVIYHEDDINYPHKYGPQGGSADHSVFERMRKYQMTGVEEVTQIPQAEHAANGPELLRK , is 35
